system tested: hDAT (Homo sapiens)
Construct: expressed in transfected cells; plated whole cells
Sequence (Q01959 whole entry): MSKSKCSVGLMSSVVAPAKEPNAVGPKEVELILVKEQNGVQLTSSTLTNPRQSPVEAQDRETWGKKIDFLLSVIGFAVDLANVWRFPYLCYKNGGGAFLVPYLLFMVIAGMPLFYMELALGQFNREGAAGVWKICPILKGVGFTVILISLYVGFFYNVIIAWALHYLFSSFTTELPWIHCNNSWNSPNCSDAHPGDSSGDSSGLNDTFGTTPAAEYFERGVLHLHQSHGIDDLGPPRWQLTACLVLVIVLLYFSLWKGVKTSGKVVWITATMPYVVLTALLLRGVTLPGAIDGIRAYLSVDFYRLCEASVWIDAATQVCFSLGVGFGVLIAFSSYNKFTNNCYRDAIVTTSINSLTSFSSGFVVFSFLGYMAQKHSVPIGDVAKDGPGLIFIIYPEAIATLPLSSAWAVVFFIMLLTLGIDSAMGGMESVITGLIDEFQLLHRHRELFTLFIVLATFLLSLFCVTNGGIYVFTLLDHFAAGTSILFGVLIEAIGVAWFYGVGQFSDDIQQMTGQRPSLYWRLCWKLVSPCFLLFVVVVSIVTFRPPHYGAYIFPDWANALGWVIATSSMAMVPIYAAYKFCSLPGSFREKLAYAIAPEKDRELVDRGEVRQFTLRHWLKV
assay procedure: Human dopamine transporter scintillation proximity assay, competition with [3H]-Vanoxerine
Type: binding
pIC50: −log10 of the molar value.
measured property: pIC50

{"columns": ["compound", "system tested", "observed result"],
 "data": [
  ["Cc1cc(C(=O)C2(CCC(C)(C)C)CCNC2)ccc1Cl (stereo not drawn) [Compound 1]", "hDAT (Homo sapiens)", 8.20],
  ["CC(C)CC1(C(=O)c2ccc(Cl)c(Oc3ccccc3)c2)CCNC1 (stereo not drawn) [Compound 31]", "hDAT (Homo sapiens)", 7.58],
  ["CC(C)C[C@]1(C(=O)c2ccc(N)c(Cl)c2)CCNC1 [Compound 28]", "hDAT (Homo sapiens)", 9.08],
  ["CCCC1(C(=O)c2ccc(Cl)c(Oc3ccccc3)c2)CCNC1 (stereo in doubt) [Compound 29]", "hDAT (Homo sapiens)", 7.98],
  ["CCC1(C(=O)c2ccc(Cl)c(Oc3ccccc3)c2)CCNC1 (stereo not drawn) [Compound 19]", "hDAT (Homo sapiens)", 8.12],
  ["CC(C)CC1(C(=O)c2cc(F)c(N)c(Cl)c2)CCNC1 (stereo in doubt) [Compound 24]", "hDAT (Homo sapiens)", 7.60],
  ["CC(C)C[C@@]1(C(=O)c2cc(F)c(N)c(Cl)c2)CCNC1 [Compound 23]", "hDAT (Homo sapiens)", 8.21],
  ["CC(C)CC[C@@]1(C(=O)c2cc(F)c(N)c(Cl)c2)CCNC1 [Compound 21]", "hDAT (Homo sapiens)", 8.82],
  ["CC(C)(C)CC[C@]1(C(=O)c2cc(F)c(N)c(Cl)c2)CCNC1 [Compound 25]", "hDAT (Homo sapiens)", 9.26]
]}
